Source listed as the Human Domainome abundance scans (Beltran et al. 2025).

B1: Homeobox protein cut-like 1, residues 941 to 1008; numbered along this chain, P39880 (parent)
chain: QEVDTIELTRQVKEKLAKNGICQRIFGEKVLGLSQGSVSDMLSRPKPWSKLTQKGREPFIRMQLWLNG

# Variants of: B1
# ASSAY_TEXT: abundance fitness (aPCA) (normalised: wild type 0, dead -1); higher = more abundant; growth selection in yeast, the domain comes from the species named
# TEST_PARAMETERS: Homo sapiens
Entries and their abundance fitness values follow.

- SEQUENCE_CODE: "QEVDTIEPTRQVKEKLAKNGICQRIFGEKVLGLSQGSVSDMLSRPKPWSKLTQKGREPFIRMQLWLNG"
  abundance fitness: -0.007
- SEQUENCE_CODE: "QEVDTIELTRQVKEKLAKNGICQRIFGEKVLGLSQGSVSDMGSRPKPWSKLTQKGREPFIRMQLWLNG"
  abundance fitness: -0.275
- SEQUENCE_CODE: "QEVDTIELTPQVKEKLAKNGICQRIFGEKVLGLSQGSVSDMLSRPKPWSKLTQKGREPFIRMQLWLNG"
  abundance fitness: -0.157
